Target: mGluR7 (Homo sapiens, UniProt Q14831)
Sequence (Q14831 35-915): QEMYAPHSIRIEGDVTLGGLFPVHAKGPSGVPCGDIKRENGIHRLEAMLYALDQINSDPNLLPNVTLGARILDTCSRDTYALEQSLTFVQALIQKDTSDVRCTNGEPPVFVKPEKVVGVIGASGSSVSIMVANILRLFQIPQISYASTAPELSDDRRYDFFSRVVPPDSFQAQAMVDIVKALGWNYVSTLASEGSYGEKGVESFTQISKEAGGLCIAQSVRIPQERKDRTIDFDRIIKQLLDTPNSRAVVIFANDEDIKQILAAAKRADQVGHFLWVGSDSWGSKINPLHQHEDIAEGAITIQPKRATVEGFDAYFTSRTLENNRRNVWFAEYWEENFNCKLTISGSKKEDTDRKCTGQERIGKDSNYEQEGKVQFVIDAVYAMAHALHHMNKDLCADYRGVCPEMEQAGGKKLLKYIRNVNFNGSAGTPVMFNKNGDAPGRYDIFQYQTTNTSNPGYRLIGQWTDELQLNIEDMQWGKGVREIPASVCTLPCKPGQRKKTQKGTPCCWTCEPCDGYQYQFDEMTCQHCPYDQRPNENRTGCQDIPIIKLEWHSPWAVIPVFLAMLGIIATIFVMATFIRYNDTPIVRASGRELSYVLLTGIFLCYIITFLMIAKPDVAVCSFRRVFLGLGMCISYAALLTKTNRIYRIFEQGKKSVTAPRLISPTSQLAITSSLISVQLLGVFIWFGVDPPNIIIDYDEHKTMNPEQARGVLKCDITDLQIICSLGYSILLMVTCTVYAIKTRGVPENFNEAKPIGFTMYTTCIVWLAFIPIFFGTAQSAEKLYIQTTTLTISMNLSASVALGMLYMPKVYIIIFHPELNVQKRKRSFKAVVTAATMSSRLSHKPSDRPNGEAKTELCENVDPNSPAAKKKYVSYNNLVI
Assay: cAMP CRE-luciferase reporter gene assay (Steady Glo) in CHO-CRE-luc cells stably expressing human mGluR7
Assay type: cell-based
Parameters: expressed in transfected cells
Settings: mean ± standard deviation, n=2; read-out: EC50 mGluR7 (human)
reported.endpoint: pEC50
Answers are plain numbers, as −log10 of the molar value.

Given the entry C[C@H](C(=O)NC1COc2ccccc2C1S(C)(=O)=O)c1ccc(F)cc1 (single isomer, unassigned) [Example 16] , what pEC50 was observed with mGluR7 (Homo sapiens, UniProt Q14831)?
8.16

###

Biological target: mGluR7 (Homo sapiens)
Assay: cAMP CRE-luciferase reporter gene assay (Steady Glo) in CHO-CRE-luc cells stably expressing human mGluR7
Format: cell-based
Set-up: expressed in transfected cells
Details: reduction of forskolin stimulated cAMP (luminescence); CHO CRE-luc human mGluR7; read-out: EC50
Consider the reported EC50 of an entry and match it to a band in Low: < 30 nM; Mid: ≥ 30 nM and < 300 nM; High: ≥ 300 nM

These recorded examples may help you get a feel for the data.
C[C@H](C(=O)NC1COc2ccccc2C1N1CCC1)c1ccc(F)cc1 (single isomer, unassigned) = Mid
COC1c2ccccc2OCC1NC(=O)[C@@H]1c2ccccc2CC(=O)N1CC1CC1 (single isomer, unassigned) [Example 19] = Low
C[C@H](C(=O)NC1COc2ccc(F)cc2C1O)c1ccccc1 (stereo in doubt) = High
CNC1c2ccccc2OCC1NC(=O)[C@@H](C)c1ccc(F)cc1 (single isomer, unassigned) [Example 23] = Mid
C[C@H](C(=O)NC1COc2ccccc2C1(C)O)c1ccccc1 (single isomer, unassigned) [Example 8] = Mid
C[C@H](C(=O)NC1COc2ccccc2C1O)c1ccccc1 (single isomer, unassigned) [Example 6] = Mid
COC1c2ccccc2OCC1NC(=O)[C@@H]1c2ccccc2CC(=O)N1CC1CC1 (stereo in doubt) [Example 15] = Low
C[C@H](C(=O)NC1COc2ccccc2C1S(C)(=O)=O)c1ccccc1 (single isomer, unassigned) [Example 12] = Low
CNC(=O)c1ccccc1C(=O)NC1c2ccccc2OCC1NC(=O)[C@@H](C)c1ccc(F)cc1 (single isomer, unassigned) [Example 34] = Mid
CNC(=O)c1ccccc1C(=O)NC1c2ccccc2OCC1NC(=O)[C@@H](C)c1ccc(F)cc1 (single isomer, unassigned) [Example 33] = High

Below: the item to evaluate.
Which of the defined bands does the recorded EC50 of CNC1c2ccccc2OCC1NC(=O)[C@@H](C)c1ccccc1 (single isomer, unassigned) [Example 10] sit within?
High

###

Assignment: determine reported pEC50 for the given molecules.
Molecular target: mGluR7 (Homo sapiens, UniProt Q14831)
Test: cAMP CRE-luciferase reporter gene assay (Steady Glo) in CHO-CRE-luc cells stably expressing human mGluR7
Format: cell-based
Design: expressed in transfected cells
Details: reduction of forskolin stimulated cAMP (luminescence); CHO CRE-luc human mGluR7; read-out: EC50
Answers are plain numbers, as −log10 of the molar value.

Field: example entries. Status: answers known.
CO[C@@H]1c2ccccc2OC[C@H]1NC(=O)C1c2ccccc2CC(=O)N1CC1CCOCC1 (relative stereo) = 7.85
C[C@H](C(=O)NC1COc2ccccc2C1N(C)C)c1ccc(F)cc1 (single isomer, unassigned) = 7.26

Report pEC50 for each item below.
1. C[C@H](C(=O)NC1COc2ccccc2C1O)c1ccccc1 (single isomer, unassigned) [Example 5]
2. CNC1c2ccccc2OCC1NC(=O)[C@@H](C)c1ccccc1 (single isomer, unassigned) [Example 9]

7.17
5.30

###

Target: mGluR7 (Homo sapiens, UniProt Q14831)
Experiment: cAMP CRE-luciferase reporter gene assay (Steady Glo) in CHO-CRE-luc cells stably expressing human mGluR7
Assay type: cell-based
Parameters: expressed in transfected cells
Conditions: reduction of forskolin stimulated cAMP (luminescence); CHO CRE-luc human mGluR7; read-out: EC50
reported.endpoint: pEC50
Give bare numbers, as −log10 of the molar value.

Field: example entries. Status: answers known.
C[C@H](C(=O)NC1COc2ccccc2C1S(C)(=O)=O)c1ccc(Cl)cc1 (single isomer, unassigned) [Example 20] = 8.00
CO[C@@H]1c2ccccc2OC[C@H]1NC(=O)C(Oc1ccnc(C)n1)c1ccc(F)cc1F (relative stereo) = 7.27
CO[C@@H]1c2ccccc2OC[C@H]1NC(=O)C1c2ccccc2CC(=O)N1Cc1ccccn1 (relative stereo) = 8.10
COC1c2ccccc2OCC1NC(=O)[C@@H]1c2ccccc2CC(=O)N1CCCF (single isomer, unassigned) [Example 26] = 7.64

Report pEC50 for each item below.
1. COC1c2ccccc2OCC1NC(=O)[C@@H]1c2ccccc2CC(=O)N1CC1CC1 (single isomer, unassigned) [Example 18]
2. C[C@H](C(=O)NC1COc2ccccc2C1O)c1ccccc1 (single isomer, unassigned) [Example 2]

1. 7.82
2. 7.02

Query: pEC50; subject: CO[C@@H]1c2ccccc2OC[C@H]1NC(=O)C(c1ccc(F)cc1)N1CC(OC(F)(F)F)C1 (relative stereo)
7.70

###

Assignment: determine reported EC50 for the given compounds.
Biological target: mGluR7 (Homo sapiens)
Assay: cAMP CRE-luciferase reporter gene assay (Steady Glo) in CHO-CRE-luc cells stably expressing human mGluR7
Type: cell-based
Parameters: expressed in transfected cells
Settings: reduction of forskolin stimulated cAMP (luminescence); CHO CRE-luc human mGluR7; read-out: EC50
Answers are plain numbers, in nM.

Field: example entries. Status: answers known.
CO[C@@H]1c2ccccc2OC[C@H]1NC(=O)C(OCC1CC1)c1ccc(F)cc1 (relative stereo) = 11
C[C@H](C(=O)NC1COc2ccccc2C1=O)c1ccccc1 (stereo partly drawn) = 860

Query: EC50; subject: C[C@H](C(=O)NC1COc2ccccc2C1N1CCCC1)c1ccc(F)cc1 (single isomer, unassigned)
62
